test: Selectivity ratio of IC50 for antimalarial activity against synchronous ring stage Plasmodium falciparum 3D7 infected in human Erythrocyte assessed as inhibition of parasite growth incubated for 48 hrs by [3H]-hypoxanthine incorporation assay to IC50 for antimalarial activity against synchronous ring stage Plasmodium falciparum 3D7 infected in human Erythrocyte assessed as inhibition of parasite growth incubated for 48 hrs by [3H]-hypoxanthine incorporation assay; assay type: functional
REPORTED_PROPERTY: Ratio IC50

{"MOLECULE": "O=S(=O)(c1nnc(N2CC3(CCOCC3)C2)o1)C1CCCCC1", "REPORTED_PROPERTY": "Ratio IC50", "REPORTED_MEASUREMENT": ">476"}
{"MOLECULE": "O=S(=O)(c1nnc(N2CCC3(CC2)COC3)o1)C1CCCCC1", "REPORTED_PROPERTY": "Ratio IC50", "REPORTED_MEASUREMENT": ">102"}
{"MOLECULE": "O=S(=O)(c1nnc(N2CCCOCC2)o1)C1CCCCC1", "REPORTED_PROPERTY": "Ratio IC50", "REPORTED_MEASUREMENT": ">134"}
{"MOLECULE": "O=S(=O)(c1nnc(N2CCN(CC(F)(F)F)CC2)o1)C1CCCCC1", "REPORTED_PROPERTY": "Ratio IC50", "REPORTED_MEASUREMENT": ">11"}
{"MOLECULE": "Cc1ccc(C)c(CS(=O)(=O)c2nnc(N3CCOCC3)o2)c1", "REPORTED_PROPERTY": "Ratio IC50", "REPORTED_MEASUREMENT": 15}
{"MOLECULE": "O=S(=O)(c1nnc(N2CCC3(CCCO3)CC2)o1)C1CCCCC1", "REPORTED_PROPERTY": "Ratio IC50", "REPORTED_MEASUREMENT": ">65"}
{"MOLECULE": "O=S(=O)(CC1CCCC1)c1nnc(N2CCOCC2)o1", "REPORTED_PROPERTY": "Ratio IC50", "REPORTED_MEASUREMENT": ">16"}
{"MOLECULE": "CC1CCCCN1c1nnc(S(=O)(=O)C2CCCCC2)o1 (racemic)", "REPORTED_PROPERTY": "Ratio IC50", "REPORTED_MEASUREMENT": ">40"}
{"MOLECULE": "CC(C)(C)OC(=O)[C@@H]1CCCN1c1nnc(S(=O)(=O)C2CCCCC2)o1", "REPORTED_PROPERTY": "Ratio IC50", "REPORTED_MEASUREMENT": ">9"}
{"MOLECULE": "CC1CN(c2nnc(S(=O)(=O)C3CCCCC3)o2)CCO1 (racemic)", "REPORTED_PROPERTY": "Ratio IC50", "REPORTED_MEASUREMENT": ">66"}
{"MOLECULE": "O=S(=O)(c1nnc(N2CCCC3(COC3)C2)o1)C1CCCCC1", "REPORTED_PROPERTY": "Ratio IC50", "REPORTED_MEASUREMENT": ">93"}
{"MOLECULE": "O=S(=O)(c1nnc(N2CCc3ccccc32)o1)C1CCCCC1", "REPORTED_PROPERTY": "Ratio IC50", "REPORTED_MEASUREMENT": ">9"}
{"MOLECULE": "O=S(=O)(c1nnc(N2C3CCC2COC3)o1)C1CCCCC1", "REPORTED_PROPERTY": "Ratio IC50", "REPORTED_MEASUREMENT": ">34"}
{"MOLECULE": "C[C@@H]1CCC[C@H](C)N1c1nnc(S(=O)(=O)C2CCCCC2)o1", "REPORTED_PROPERTY": "Ratio IC50", "REPORTED_MEASUREMENT": ">165"}
{"MOLECULE": "CN1CCN(c2nnc(S(=O)(=O)C3CCCCC3)o2)CC1", "REPORTED_PROPERTY": "Ratio IC50", "REPORTED_MEASUREMENT": ">19"}
{"MOLECULE": "CC1(C)CCCN(c2nnc(S(=O)(=O)C3CCCCC3)o2)C1", "REPORTED_PROPERTY": "Ratio IC50", "REPORTED_MEASUREMENT": 527}
{"MOLECULE": "CC(=O)N1CCN(c2nnc(S(=O)(=O)C3CCCCC3)o2)CC1", "REPORTED_PROPERTY": "Ratio IC50", "REPORTED_MEASUREMENT": ">34"}
{"MOLECULE": "CC1CC(C)CN(c2nnc(S(=O)(=O)C3CCCCC3)o2)C1 (mixture of isomers)", "REPORTED_PROPERTY": "Ratio IC50", "REPORTED_MEASUREMENT": ">403"}
{"MOLECULE": "O=S(=O)(c1nnc(N2CCCCCC2)o1)C1CCCCC1", "REPORTED_PROPERTY": "Ratio IC50", "REPORTED_MEASUREMENT": ">114"}
{"MOLECULE": "O=S(=O)(c1nnc(N2CCOCC2)o1)C1CCOCC1", "REPORTED_PROPERTY": "Ratio IC50", "REPORTED_MEASUREMENT": ">7"}
{"MOLECULE": "O=S(=O)(CC1(C(F)(F)F)CC1)c1nnc(N2CCOCC2)o1", "REPORTED_PROPERTY": "Ratio IC50", "REPORTED_MEASUREMENT": ">4"}
{"MOLECULE": "O=S(=O)(c1nnc(N2CCCCO2)o1)C1CCCCC1", "REPORTED_PROPERTY": "Ratio IC50", "REPORTED_MEASUREMENT": 0.4}
{"MOLECULE": "O=S(=O)(c1nnc(N2CCC(F)(F)CC2)o1)C1CCCCC1", "REPORTED_PROPERTY": "Ratio IC50", "REPORTED_MEASUREMENT": ">17"}
{"MOLECULE": "O=S(=O)(c1nnc(N2CC3CC2CO3)o1)C1CCCCC1 (racemic)", "REPORTED_PROPERTY": "Ratio IC50", "REPORTED_MEASUREMENT": ">32"}
{"MOLECULE": "O=S(=O)(c1nnc(N2CCOCC2)o1)C1CC2CCC1C2 (racemic)", "REPORTED_PROPERTY": "Ratio IC50", "REPORTED_MEASUREMENT": ">36"}
{"MOLECULE": "CC1CCN(c2nnc(S(=O)(=O)C3CCCCC3)o2)CC1", "REPORTED_PROPERTY": "Ratio IC50", "REPORTED_MEASUREMENT": 182}
{"MOLECULE": "CC(C)(C)OC(=O)N1CCC(S(=O)(=O)c2nnc(N3CCOCC3)o2)CC1", "REPORTED_PROPERTY": "Ratio IC50", "REPORTED_MEASUREMENT": ">5"}
{"MOLECULE": "CC1(C)CCN(c2nnc(S(=O)(=O)C3CCCCC3)o2)CC1", "REPORTED_PROPERTY": "Ratio IC50", "REPORTED_MEASUREMENT": ">171"}
{"MOLECULE": "CC(C)(C)OC(=O)N1CCN(c2nnc(S(=O)(=O)C3CCCCC3)o2)CC1", "REPORTED_PROPERTY": "Ratio IC50", "REPORTED_MEASUREMENT": ">18"}
{"MOLECULE": "O=S(=O)(c1nnc(N2CC3CCC(C2)O3)o1)C1CCCCC1", "REPORTED_PROPERTY": "Ratio IC50", "REPORTED_MEASUREMENT": ">500"}
{"MOLECULE": "COC1CCN(c2nnc(S(=O)(=O)C3CCCCC3)o2)CC1", "REPORTED_PROPERTY": "Ratio IC50", "REPORTED_MEASUREMENT": ">72"}
{"MOLECULE": "CC1CCCN(c2nnc(S(=O)(=O)C3CCCCC3)o2)C1 (racemic)", "REPORTED_PROPERTY": "Ratio IC50", "REPORTED_MEASUREMENT": ">125"}
